// percent of parent lookup, one value per entry
B1: FLAG-tagged FBXO44 FBA domain (FBXO44^FBA) [human] / RGS2^5–16 peptide (RGS2 degron, Met^5–Met^16) [not stated] (parent complex)
chain 1: FYFLRSLHRNLLHNPCAEEGFEFWSLDVNGGDEWKVEDLSRDQRKEFPNDQVKKYFVTSYYTCLKSQVVDLKAEGYWEELMDTTRPDIEVKDWFAARPDCGSKYQLCVQLLSSAHAPLGTFQPDPATIQQKSDAKWREVSHTFSNYPPGVRYIWFQHGGVDTHYWAGWYGPRVTNSSITIGP
chain 2: MFLAVQHDCRPM

# Variants of: B1
# assay_overview: peptide microarray (PEPperPRINT), α-FLAG fluorescence; three independent experiments with three technical replicates each; parent: 100; read off a plot

Solved entries:
- variant_string: "chain 2 C9D"
  val: "~28 % Parent"
- variant_string: "chain 2 C9Y"
  val: "~55 % Parent"
- variant_string: "chain 2 C9K"
  val: "~47 % Parent"
- variant_string: "chain 2 C9F"
  val: "~20 % Parent"
- variant_string: "chain 2 C9T"
  val: "~15 % Parent"

variant chain 2 C9E , percent of parent observed: ~15 % Parent

variant chain 2 C9Q , percent of parent observed: ~25 % Parent

variant chain 2 C9W , percent of parent observed: ~50 % Parent
